Origin of values: patent US20170320956A1

Biological target: T1, recombinant human LIGHT-214E, FLAG-tagged extracellular domain (human)
T1 chain: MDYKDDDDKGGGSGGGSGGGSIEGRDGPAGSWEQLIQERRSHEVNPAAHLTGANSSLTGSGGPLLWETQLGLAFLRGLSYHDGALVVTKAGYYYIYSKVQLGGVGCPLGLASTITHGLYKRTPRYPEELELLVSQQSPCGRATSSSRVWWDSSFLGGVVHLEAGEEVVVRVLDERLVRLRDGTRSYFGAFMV
Assay: cell-based or functional assay
measure name: HT29 IL-8 release, IC50 (nM)
Report only the number, with the unit nM understood.

binder	result unit	HT29 IL-8 release, IC50
13H04 in human IgG4(PE) format (antibody, V domains shown) VH: QVQLVQSGAEVKKPGASVKVSCKASGYTFTSYGISWVRQAPGQGLEWMGWISAHNANTNYAQKLQGRVTMTTDTSTSTAYMELRSLRSDDTAMYYCARLYRNWFDPWGQGTLVTVSS VL: QSALTQPASVSGSPGQSITISCTGTSSDVGGYNYVSWYQQHPGKAPKLMIYDVSKRPSGVSNRFSGSKSGNTASLTISGLQAEDEADYYCCSYAGSSTLLFGGGTKLTVL	nM	1.22
31A10 in human IgG4(PE) format (antibody, V domains shown) VH: QVQLQESGPGLVKPSGTLSLTCAVSGGSISSINWWNWVRQPPGKGLEWIGEVSHSGITNYNPSLKSRVTMSVDKAKNQFSLKLNSVTAADTAVYYCARERAVADYHGMDVWGQGTTVTVSS VL: AIQLTQSPSSLSASVGDRVTITCRASQGISSALAWFQQKPGKPPKLLIFDASDLESGVSSRFSGSGSGTDFTLTISSLQPGDFATYYCQQFNSYPITFGQGTRLEIK	nM	0.29
98C07 in human IgG4(PE) format (antibody, V domains shown) VH: QVQLVESGGGLVKPGGSLRLSCAASGFTFSDYYMSWIRQAPGKGLEWVSYISRSSFIYYSESVKGRFTISRDNAKNSLYLQMNSLRAEDTAVYYCARWELSPFDYWGQGTLVTVSS VL: DIQMTQSPSSLSASVGDRVTITCRASQGISNYLAWFQQKPGKAPKSLIYAASSLQSGVPSKFSGSGSGTDFTLTISSLQPEDFATYFCQQYNTYPFTFGPGTKVDIK	nM	0.18

Now consider the entry below.
Query: I have this binder here, 01C02 in human IgG4(PE) format (antibody, V domains shown) VH: QVQLVQSGAEVQKPGASVMVSCKASGYTFTYYGISWVRQAPGQGLEWMGWISANSGNTNYAQKFQGRVTMTTDTSTNTAYMELRSLRTDDTAVYYCAKGGVAVLEYWGQGTLVTVSS VL: DIQLTQSPSFLSASVGDRVTITCWASQGISSYLAWYQQKPGKAPNLLIYVASTLQSGVPSRFSGSGSGTEFTLTISSLQPEDFATYYCQQLKIYPLTFGGGTKVEIK , and I need its recorded HT29 IL-8 release, IC50.
Response: 0.26
